Give measured AST for each item. Keep answers brief.
- System: primary rat hepatocytes injured by D-GalN
- Test summary: Hepatoprotective activity in primary rat hepatocytes injured by D-GalN (AST, LDH levels)
- Assay type: cell-based
- Test conditions: 60 μM compound; primary rat hepatocytes, 2 mM D-GalN; model 17.1 ± 2.4, control 6.9 ± 1.7; mean ± SD, n = 3
Marks after values point to notes of the source that are not given here.

Compound	Measured attribute	Reported value
CC1(C)[C@@H](O[C@H]2O[C@H](C(=O)O)[C@@H](O)[C@H](O)[C@H]2O[C@@H]2O[C@H](C(=O)O)[C@@H](O)[C@H](O)[C@H]2O)CC[C@]2(C)[C@H]3C(=O)C=C4[C@@H]5C[C@@](C)(C(=O)O)CC[C@]5(C)CC[C@@]4(C)[C@]3(C)CC[C@@H]12 [Compound 11, glycyrrhizin]	AST	13.0 ± 2.2 ^c U·L^−1

Hey, quick one: what's AST for each of these?
1. CC1(C(=O)O)CCC2(C)CCC3(C)C(=CC(=O)C4C5(C)CCC(OC6OC(C(=O)O)C(O)C(O)C6OC6OC(C(=O)O)C(O)C(O)C6O)C(C)(CO)C5CCC43C)C2C1 (centres unmarked) [Compound 3]
2. CC1(C(=O)O)CCC2(C)CCC3(C)C(=CC(=O)C4C5(C)CCC(OC6OC(C(=O)O)C(O)C(O)C6OC6OC(C(=O)O)C(O)C(O)C6O)C(C)(CO)C5CCC43C)C2C1 (centres unmarked) [Compound 4, licorice-saponin G2]
3. CC12CCC3(C)C(=CC(=O)C4C5(C)CCC(OC6OC(C(=O)O)C(O)C(O)C6OC6OC(C(=O)O)C(O)C(O)C6O)C(C)(C)C5CCC43C)C1CC(C)(C(=O)O)C(O)C2 (centres unmarked) [Compound 2, macedonoside A]
4. CC(=O)OC1CC(C)(C(=O)O)CC2C3=CC(=O)C4C5(C)CCC(OC6OC(C(=O)O)C(O)C(O)C6OC6OC(C(=O)O)C(O)C(O)C6O)C(C)(C)C5CCC4(C)C3(C)CCC12C (stereo not drawn) [Compound 6, 22β-acetoxyglycyrrhizin]

Completion:
["12.9 ± 3.2 ^d U·L^−1", "13.7 ± 2.6 ^c U·L^−1", "13.1 ± 2.1 ^c U·L^−1", "14.6 ± 3.0 U·L^−1"]
